Source listed as patent US20170355774A1.

Target: T1, human GITR (amino acids M1-V241, NCBI Accession #NP_004186.1) expressed on cells (human, UniProt Q9Y5U5 26-241)
T1 sequence: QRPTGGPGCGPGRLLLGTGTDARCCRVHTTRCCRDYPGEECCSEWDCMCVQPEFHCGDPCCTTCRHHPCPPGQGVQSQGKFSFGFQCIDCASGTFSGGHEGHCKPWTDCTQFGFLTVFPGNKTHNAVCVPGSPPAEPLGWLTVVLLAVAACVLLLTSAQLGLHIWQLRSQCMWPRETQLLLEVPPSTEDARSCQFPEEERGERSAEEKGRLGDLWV
Assay: cell-based or functional assay
Kindly state IC50, blocking of hGITRL stimulation, NF-kB-Luc, non-anchored for each of the entries shown.
One number for each entry, in nM.

Quick one: give measured IC50, blocking of hGITRL stimulation, NF-kB-Luc, non-anchored for H4H14469P (antibody, human IgG4, V domains shown, human IgG4 (H4H)) VH: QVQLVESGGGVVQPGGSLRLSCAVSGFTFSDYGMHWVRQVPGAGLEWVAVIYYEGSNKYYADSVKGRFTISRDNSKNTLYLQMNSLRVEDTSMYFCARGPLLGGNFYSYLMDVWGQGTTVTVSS VL: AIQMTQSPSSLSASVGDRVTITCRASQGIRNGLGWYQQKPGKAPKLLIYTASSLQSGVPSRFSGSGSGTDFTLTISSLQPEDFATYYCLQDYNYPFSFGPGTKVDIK
0.7

Quick one: give measured IC50, blocking of hGITRL stimulation, NF-kB-Luc, non-anchored for H1H14493P (antibody, human IgG1, V domains shown, human IgG1 (H1H)) VH: QVQLVESGGGVVQPGRSLRLSCAASGFNFRSYGMHWVRQAPGKGLEWVAVIWYDGSNKYYADSVKGRFTISRDSSRDTLFLQMNSLRAGDTAVYYCARGGMLGRDYYYGMDVWGQGTTVTVSS VL: DIQMTQSPSSLSASVGDRVTITCRASQGIRNDLGWYQQKPGKAPKRLIYAASSLQSGVPSRFSGSGSGTEFTLTISSLQPEDFATYYCLQHNSYPNTFGQGTKLEIK
0.6

Next, consider the following binder.
Quick one: give measured IC50, blocking of hGITRL stimulation, NF-kB-Luc, non-anchored for H4H14508P (antibody, human IgG4, V domains shown, human IgG4 (H4H)) VH: QVQLVESGGGVVQPGRSLRLSCAASGLTVSSYVMHWVRQAPGKGLEWVAIIWYDGSNKYYGDSVKGRFTISRDNSKKTLYLQMNSLRAEDTAVYYCARGRPLSSSSSDYYGLDVWGQGTTVTVSS VL: AIQMTQSPSSLSASVGDRVTIICRASQGIRNDLGWYQQKPGKAPNLLIYAASSLQSGVPSRFSGSGSGTDFTLTISSLQPEDFATYYCLQDYNYPWTFGQGTKVEIK
0.9
